Parameter: IC50. Scope: all listed entries.
- measurement.target: Immunoglobulin A1 protease autotransporter (Haemophilus influenzae (strain ATCC 51907 / DSM 11121 / KW20 / Rd), UniProt P44969)
- Sequence (P44969 26-1014 limits assumed): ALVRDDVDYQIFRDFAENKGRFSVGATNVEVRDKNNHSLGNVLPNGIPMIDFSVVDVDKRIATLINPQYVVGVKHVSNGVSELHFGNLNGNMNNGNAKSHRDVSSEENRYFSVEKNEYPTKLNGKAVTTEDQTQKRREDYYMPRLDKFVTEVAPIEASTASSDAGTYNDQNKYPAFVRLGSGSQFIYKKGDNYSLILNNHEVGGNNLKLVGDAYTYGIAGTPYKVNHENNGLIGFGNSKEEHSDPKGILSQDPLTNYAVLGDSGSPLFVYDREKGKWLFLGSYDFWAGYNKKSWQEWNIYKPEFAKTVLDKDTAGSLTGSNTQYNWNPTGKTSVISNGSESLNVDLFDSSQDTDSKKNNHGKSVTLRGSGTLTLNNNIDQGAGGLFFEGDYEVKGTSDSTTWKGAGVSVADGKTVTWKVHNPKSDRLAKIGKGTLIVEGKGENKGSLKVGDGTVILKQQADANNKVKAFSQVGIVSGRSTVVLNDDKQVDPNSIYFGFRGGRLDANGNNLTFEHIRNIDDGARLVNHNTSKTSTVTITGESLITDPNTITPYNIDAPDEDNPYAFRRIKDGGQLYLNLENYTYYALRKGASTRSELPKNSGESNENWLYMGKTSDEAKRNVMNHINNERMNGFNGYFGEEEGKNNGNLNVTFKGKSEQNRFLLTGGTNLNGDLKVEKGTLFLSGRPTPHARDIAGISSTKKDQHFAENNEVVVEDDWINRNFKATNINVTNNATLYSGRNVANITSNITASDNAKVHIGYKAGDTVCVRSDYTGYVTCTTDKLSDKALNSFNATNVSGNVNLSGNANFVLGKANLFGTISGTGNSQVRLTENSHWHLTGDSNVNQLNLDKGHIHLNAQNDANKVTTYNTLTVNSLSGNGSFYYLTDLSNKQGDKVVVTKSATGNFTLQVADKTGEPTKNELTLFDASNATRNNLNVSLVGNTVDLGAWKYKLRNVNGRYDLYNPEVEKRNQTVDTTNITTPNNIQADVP
- assay.remarks: Inhibition of Haemophilus influenzae Rd IGA1 protease expressed in Escherichia coli BL21(DE3) preincubated for 1 hr followed by substrate addition and measured after 2 hrs by sandwich ELISA
Express your answer in µM, writing the number without its unit.

## Input Recorded IC50 for O=C(Oc1nsnc1N1CCOCC1)c1ccccc1 , please?
## Output 5.9

## Input Now try O=C(Oc1nsnc1N1CCCCC1)C1CCOCC1 .
## Output 3.7
